SYSTEM_UNDER_TEST: T1, LAG3 on cells (recombinant CHO cells expressing Lag3) (human, UniProt P18627 29-525)
T1 sequence: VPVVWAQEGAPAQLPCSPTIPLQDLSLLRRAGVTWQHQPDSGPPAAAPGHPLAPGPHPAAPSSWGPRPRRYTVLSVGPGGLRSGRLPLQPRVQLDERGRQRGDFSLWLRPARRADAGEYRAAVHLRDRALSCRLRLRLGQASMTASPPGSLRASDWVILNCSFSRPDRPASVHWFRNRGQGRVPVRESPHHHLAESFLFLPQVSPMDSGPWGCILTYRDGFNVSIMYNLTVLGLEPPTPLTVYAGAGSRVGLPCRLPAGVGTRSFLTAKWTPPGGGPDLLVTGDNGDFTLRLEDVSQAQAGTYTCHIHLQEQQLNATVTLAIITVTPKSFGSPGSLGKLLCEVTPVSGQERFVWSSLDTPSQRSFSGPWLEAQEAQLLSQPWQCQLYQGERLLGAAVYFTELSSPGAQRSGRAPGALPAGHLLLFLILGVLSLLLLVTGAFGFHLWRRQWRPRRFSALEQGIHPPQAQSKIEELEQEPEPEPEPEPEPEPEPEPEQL
TEST_PROTOCOL: cell-based or functional assay
ASSAY_ENDPOINT: EC50 [nM] in Jurkat LAG3 + SED + Raji (NFAT luciferase), 2nd assay (nM)
Give the quantity in nM, number only.

// solved cases for EC50 [nM] in Jurkat LAG3 + SED + Raji (NFAT luciferase), 2nd assay follow
| BINDER | U | EXPERIMENTAL_RESULT |
| --- | --- | --- |
| aLAG3(0414) (antibody, V domains shown) VH: EVQLLESGGGLVQPGGSLRLSCAASGFIFDDYTMNWVRQAPGKGLEWVAVISWDGGGTYYTDSVKGRFTISRDDFKNTLYLQMNSLRAEDTAVYYCAKGLTDTTLYGSDYWGQGTLVTVSS VL: DIQMTQSPSSLSASVGDRVTITCRASQSISSYLNWYQQKPGKAPKLLIYAASTLQSGVPSRFSGSGSGTDFTLTISSLQPEDFATYYCQQTYSSPLTFGGGTKVEIKG | nM | 1 |
| Reference LAG3 antibody MDX25F7 (antibody, V domains shown, also called MDX-25F7 (25F7); Medarex 25F7) VH: QVQLQQWGAGLLKPSETLSLTCAVYGGSFSDYYWNWIRQPPGKGLEWIGEINHNGNTNSNPSLKSRVTLSLDTSKNQFSLKLRSVTAADTAVYYCAFGYSDYEYNWFDPWGQGTLVTVSS VL: EIVLTQSPATLSLSPGERATLSCRASQSISSYLAWYQQKPGQAPRLLIYDASNRATGIPARFSGSGSGTDFTLTISSLEPEDFAVYYCQQRSNWPLTFGQGTNLEIK | nM | 8.6 |

Consider the record given below.
// query EC50 [nM] in Jurkat LAG3 + SED + Raji (NFAT luciferase), 2nd assay value for entry aLAG3(0411) (antibody, V domains shown, also called aLAG3 (411)) VH: EVHLLESGGGLVQPGGSLRLSCAASGFIVDDYTMNWVRQAPGKGLEWVSVISWDGGATYYADSVKGRFTISRDDFKNTLYLQMNSLRAEDTAVYYCAKGLTDDTLYGSDYWGQGTLVTVSS VL: DIQMTQSPSSLSASVGDRVTITCRASQSIVSYLNWYQQKPGKAPKLLIYASSSLQSGVPSRFSGSGSGTDFTLTISSLQPEDFATYYCQQTYSTPLTFGGGTKVEIK
1
